Each recorded value in this set is attributed to ChEMBL document CHEMBL5316337.

Test system: Klebsiella pneumoniae
Test: Antibacterial activity against Carbapenem-resistant Klebsiella pneumoniae FADD1-KP032 clinical isolates assessed as reduction in bacterial growth by broth microdilution method
Format: functional
Bridge positions count the residues as written; N and C are the ends. Square brackets hold non-standard residues; d marks the D form. Peptide text beside a SMILES is read from it. * marks the point of attachment. X1 = CC[C@H](C)CCCCC(=O)*; Dab = NCC[C@H](N)C(=O)O
observationType: MIC (µg/mL)

INSERT INTO results (molecule, studysystem, observationtype, relationoperator, recordedmeasurement) VALUES
  ('CC[C@H](C)CCCCC(=O)N[C@@H](CCN)C(=O)N[C@H](C(=O)N[C@@H](CCN)C(=O)N[C@H]1CCNC(=O)[C@H](CCN)NC(=O)[C@H](CCN)NC(=O)[C@H](CCN)NC(=O)[C@H](CC(C)C)NC(=O)[C@@H](Cc2ccccc2)NC(=O)[C@H](CCN)NC1=O)[C@@H](C)O', 'Klebsiella pneumoniae', 'MIC', '=', 32),
  ('CC[C@H](C)CCCCC(=O)N[C@@H](CCN)C(=O)N[C@H](C(=O)N[C@@H](CCN)C(=O)N[C@H]1CCNC(=O)[C@H](CCCCN)NC(=O)[C@H](CCN)NC(=O)[C@H](CCN)NC(=O)[C@H](CC(C)C)NC(=O)[C@@H](Cc2ccccc2)NC(=O)[C@H](CCN)NC1=O)[C@@H](C)O', 'Klebsiella pneumoniae', 'MIC', '=', 32),
  ('CC[C@H](C)CCCCC(=O)N[C@@H](CCN)C(=O)N[C@H](C(=O)N[C@@H](CCN)C(=O)N[C@H]1CCNC(=O)[C@H](CCC(=O)O)NC(=O)[C@H](CCN)NC(=O)[C@H](CCN)NC(=O)[C@H](CC(C)C)NC(=O)[C@@H](Cc2ccccc2)NC(=O)[C@H](CCN)NC1=O)[C@@H](C)O', 'Klebsiella pneumoniae', 'MIC', '>', 32),
  ('CC[C@H](C)CCCCC(=O)N[C@@H](CCN)C(=O)N[C@H](C(=O)N[C@@H](CCN)C(=O)N[C@H]1CCNC(=O)CNC(=O)[C@H](CCN)NC(=O)[C@H](CCN)NC(=O)[C@H](CC(C)C)NC(=O)[C@@H](Cc2ccccc2)NC(=O)[C@H](CCN)NC1=O)[C@@H](C)O', 'Klebsiella pneumoniae', 'MIC', '=', 4),
  ('CC[C@H](C)CCCCC(=O)N[C@@H](CCN)C(=O)N[C@H](C(=O)N[C@@H](CCN)C(=O)N[C@H]1CCNC(=O)[C@H](C(C)(C)C)NC(=O)[C@H](CCN)NC(=O)[C@H](CCN)NC(=O)[C@H](CC(C)C)NC(=O)[C@@H](Cc2ccccc2)NC(=O)[C@H](CCN)NC1=O)[C@@H](C)O', 'Klebsiella pneumoniae', 'MIC', '=', 2),
  ('CC[C@H](C)CCCCC(=O)N[C@@H](CCN)C(=O)N[C@H](C(=O)N[C@@H](CCN)C(=O)N[C@H]1CCNC(=O)[C@H](CC(C)C)NC(=O)[C@H](CCN)NC(=O)[C@H](CCN)NC(=O)[C@H](CC(C)C)NC(=O)[C@@H](Cc2ccccc2)NC(=O)[C@H](CCN)NC1=O)[C@@H](C)O (X1-[Dab]T[Dab][Dab][Dab][dF]L[Dab][Dab]L; lactam 4-C)', 'Klebsiella pneumoniae', 'MIC', '=', 4),
  ('CC[C@H](C)CCCCC(=O)N[C@@H](CCN)C(=O)N[C@H](C(=O)N[C@@H](CCN)C(=O)N[C@H]1CCNC(=O)[C@H]([C@@H](C)O)NC(=O)[C@H](CCN)NC(=O)[C@H](CCN)NC(=O)[C@H](CC(C)C)NC(=O)[C@@H](Cc2ccccc2)NC(=O)[C@H](CCN)NC1=O)[C@@H](C)O', 'Klebsiella pneumoniae', 'MIC', '=', 0.25);
